Values from patent US20260209345A1

- Study System: T1, recombinant LILRB2 ECD (human, UniProt Q8N423 22-460)
- T1 construct: also called biotinylated LILRB2 ECD
- T1 sequence (Q8N423 22-460 limits assumed): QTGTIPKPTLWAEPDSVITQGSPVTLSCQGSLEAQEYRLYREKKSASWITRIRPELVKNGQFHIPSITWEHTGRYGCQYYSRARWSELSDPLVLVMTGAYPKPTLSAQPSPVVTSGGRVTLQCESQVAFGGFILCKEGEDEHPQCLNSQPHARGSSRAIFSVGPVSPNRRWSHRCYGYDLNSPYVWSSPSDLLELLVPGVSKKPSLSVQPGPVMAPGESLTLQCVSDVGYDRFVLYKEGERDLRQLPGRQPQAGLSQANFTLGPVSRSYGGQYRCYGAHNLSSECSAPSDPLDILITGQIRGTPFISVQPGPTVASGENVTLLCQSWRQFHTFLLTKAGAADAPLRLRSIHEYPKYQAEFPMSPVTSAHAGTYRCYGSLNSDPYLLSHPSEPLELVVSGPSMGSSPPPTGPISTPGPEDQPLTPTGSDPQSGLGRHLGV
- Assay Remarks: ELISA, LILRB2 ECD binding to HLA-G-Fc
pIC50: −log10 of the molar value.

| Binder | pIC50 |
| --- | --- |
| A-024 (antibody, V domains shown, tested as IgG) VH: QVQLVQSGAEVKKPGSSVKVSCKASGYTFTGSAMSWVRQAPGQGLEWMGGILPIFGTSVYAQKFQGRVTITADESTSTAYMELSSLRSEDTAVYYCAKGPPVGSSSWYTDWYFDLWGRGTLVTVSS VL: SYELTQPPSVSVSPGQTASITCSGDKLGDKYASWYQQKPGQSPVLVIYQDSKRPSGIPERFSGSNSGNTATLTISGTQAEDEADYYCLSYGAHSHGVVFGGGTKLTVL | 8.48 |
| A-009 (antibody, V domains shown, tested as IgG) VH: QVQLVQSGAEVKKPGSSVKVSCKASGGTFSVTAILWVRQAPGQGLEWMGGIIPSFTSANYASKFQGRVTITADESTSTAYMELSSLRSEDTAVYYCAKDLGTYSSGWPYYYGMDVWGQGTTVTVSS VL: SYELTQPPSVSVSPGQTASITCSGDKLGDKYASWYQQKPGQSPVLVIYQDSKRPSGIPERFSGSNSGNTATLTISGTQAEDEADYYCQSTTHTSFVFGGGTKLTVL | 8.26 |
| A-011 (antibody, V domains shown, tested as IgG) VH: QVQLVQSGAEVKKPGSSVKVSCKASGGSFSHSAFSWVRQAPGQGLEWMGSIIPAFYTANYAQKFQGRVTITADESTSTAYMELSSLRSEDTAVYYCAKDLGTYSSGWPYYYGMDVWGQGTTVTVSS VL: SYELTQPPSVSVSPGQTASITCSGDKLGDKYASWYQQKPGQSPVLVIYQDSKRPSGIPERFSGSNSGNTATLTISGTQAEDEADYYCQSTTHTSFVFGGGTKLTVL | 8.26 |
